Tested on: Klebsiella pneumoniae
Experiment: Inhibition of beta lactamase KPC-2 in Klebsiella pneumoniae 5846 assessed as potentiation of meropenem-induced antibacterial activity by measuring meropenem MIC at 50 uM after 16 to 20 hrs by broth microdilution assay (reference value: […] ug/ml)
Measured MIC of individual entries
The figure you give is taken to be in µg/mL; do not add the unit.

> print(dat)
                               entry.smiles  readout  numeric.value
1  C[C@]1(Cn2ccnn2)[C@H](C(=O)O)N2C(=O)C[C@H]2S1(=O)=O      MIC              8
2          C[C@H](CS)C(=O)N1CCC[C@H]1C(=O)O      MIC              8
3    C[C@H](CS)C(=O)N[C@@H](Cc1ccccc1)B(O)O      MIC              8
4  C[C@H](CS)C(=O)N[C@@H](Cc1coc2ccccc12)B(O)O      MIC              8
5                    C[C@H](CS)C(=O)NCB(O)O      MIC              4

# lookup: MIC of C[C@H](CS)C(=O)N[C@H](Cc1ccccc1)B(O)O
16

Continue with C[C@H](CS)C(=O)N[C@H](Cc1coc2ccccc12)B(O)O
8

###

Assay: Inhibition of bacterial N-terminal His-tagged TEV protease site linked SFH1 (3 to 234 amino acids) expressed in Escherichia coli Transetta (DE3) preincubated for 10 mins followed by FC5 fluorescent substrate addition by fluorescence assay
Set-up: species or system Bacteria
Measured pKi of individual entries
Answer as the number alone; pKi is minus log10 of concentration in mol/L.

Answered cases to consult:
> print(dat)
                                   compound  readout  numeric.value
1  O=C(N[C@@H](Cc1ccccc1)B(O)O)[C@@H](CS)N1C(=O)c2ccccc2C1=O      pKi           5.11
2  COc1ccc(C[C@H](NC(=O)[C@H](C)CS)B(O)O)cc1      pKi           6.29
3        O=C(CS)N[C@H](Cc1coc2ccccc12)B(O)O      pKi           6.92
4  O=C(N[C@@H](Cc1ccccc1)B(O)O)C(CS)Cc1ccccc1 (stereo partly specified)      pKi           5.24

Attention now turns to another entry.
# lookup: pKi of COc1ccc(C[C@@H](NC(=O)[C@H](C)CS)B(O)O)cc1
6.13

###

Biological target: Beta-lactamase TEM (Bacteria)
Sequence (P62593 whole entry, the tested form may be a part): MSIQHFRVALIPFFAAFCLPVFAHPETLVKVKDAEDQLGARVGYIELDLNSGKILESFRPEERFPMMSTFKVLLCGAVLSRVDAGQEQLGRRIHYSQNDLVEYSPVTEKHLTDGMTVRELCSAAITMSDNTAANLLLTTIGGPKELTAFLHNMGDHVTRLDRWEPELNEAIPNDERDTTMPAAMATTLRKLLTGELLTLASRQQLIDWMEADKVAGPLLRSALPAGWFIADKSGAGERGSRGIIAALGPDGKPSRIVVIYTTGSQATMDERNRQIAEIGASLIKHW
Test: Inhibition of bacterial N-terminal His-tagged TEV protease site linked TEM-1 (24 to 286 amino acids) expressed in Escherichia coli Transetta (DE3) preincubated for 10 mins followed by FC5 fluorescent substrate addition by fluorescence assay
READOUT: pKi
Answer as the number alone; pKi is minus log10 of concentration in mol/L.

> print(dat)
                                   compound                measured.target  numeric.value
1            O=C(CS)N[C@@H](Cc1ccccc1)B(O)O  Beta-lactamase TEM (Bacteria)           4.73
2  COc1ccc(C[C@@H](NC(=O)[C@H](C)CS)B(O)O)cc1  Beta-lactamase TEM (Bacteria)           4.09
3  C[C@H](CS)C(=O)N[C@H](Cc1coc2ccccc12)B(O)O  Beta-lactamase TEM (Bacteria)           4.49
4  C[C@H](CS)C(=O)N[C@H](Cc1ccc(F)cc1)B(O)O  Beta-lactamase TEM (Bacteria)           3.75

Attention now turns to another entry.
# lookup: pKi of C[C@H](CS)C(=O)N[C@H](B(O)O)c1ccccc1
5.20

###

Biological target: Metallo-beta-lactamase type 2 (Klebsiella pneumoniae) (UniProt C7C422)
Sequence (C7C422 whole entry): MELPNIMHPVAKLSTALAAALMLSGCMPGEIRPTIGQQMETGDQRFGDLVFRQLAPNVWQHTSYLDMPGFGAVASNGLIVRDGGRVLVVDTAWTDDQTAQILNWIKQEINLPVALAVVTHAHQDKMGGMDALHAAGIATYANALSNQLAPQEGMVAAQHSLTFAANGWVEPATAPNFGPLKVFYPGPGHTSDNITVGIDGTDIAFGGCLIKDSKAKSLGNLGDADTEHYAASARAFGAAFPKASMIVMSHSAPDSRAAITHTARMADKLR
Test: Inhibition of beta lactamase NDM1 in Klebsiella pneumoniae 13249 assessed as potentiation of meropenem-induced antibacterial activity by measuring meropenem MIC at 50 uM after 16 to 20 hrs by broth microdilution assay (reference value: 64 ug/ml)
READOUT: MIC (µg/mL)
The figure you give is taken to be in µg/mL; do not add the unit.

> print(dat)
                               entry.smiles    uom  numeric.value
1          C[C@H](CS)C(=O)N1CCC[C@H]1C(=O)O  µg/mL             32
2  C[C@H](CS)C(=O)N[C@@H](Cc1coc2ccccc12)B(O)O  µg/mL             64
3  C[C@]1(Cn2ccnn2)[C@H](C(=O)O)N2C(=O)C[C@H]2S1(=O)=O  µg/mL             64
4     C[C@H](CS)C(=O)N[C@H](Cc1ccccc1)B(O)O  µg/mL             64
5    C[C@H](CS)C(=O)N[C@@H](Cc1ccccc1)B(O)O  µg/mL             64
6                    C[C@H](CS)C(=O)NCB(O)O  µg/mL             64

Attention now turns to another entry.
Under Metallo-beta-lactamase type 2 (Klebsiella pneumoniae) (UniProt C7C422): MIC value of C[C@H](CS)C(=O)N[C@H](Cc1coc2ccccc12)B(O)O ?
32

###

Experiment: Inhibition of bacterial N-terminal His-tagged TEV protease site linked SFH1 (3 to 234 amino acids) expressed in Escherichia coli Transetta (DE3) preincubated for 10 mins followed by FC5 fluorescent substrate addition by fluorescence assay
Set-up: species or system Bacteria
READOUT: Ki (µM)
The figure you give is taken to be in µM; do not add the unit.

Answered cases to consult:
> print(dat)
                               entry.smiles  numeric.value
1      C[C@H](CS)C(=O)N[C@H](B(O)O)c1ccccc1           0.08
2        CC(C)C[C@H](NC(=O)[C@H](C)CS)B(O)O           6.11
3  C[C@H](CS)C(=O)N[C@@H](B(O)O)c1ccc(F)cc1           0.28

# lookup: Ki of CC(C)C[C@@H](NC(=O)[C@H](C)CS)B(O)O
1.91

Continue with CCCC(=O)NCB(O)O
5.78

Continue with CC(C)[C@H](NC(=O)[C@H](C)CS)B(O)O
9.14

###

Test system: HEK-293T
Test: Cytotoxicity against HEK293T cells up to 100 uM after 72 hrs by MTT assay
Assay type: cell-based
Conditions: human
READOUT: Activity

> print(dat)
                               entry.smiles   readout     result
1  C[C@H](CS)C(=O)N[C@@H](Cc1coc2ccccc12)B(O)O  Activity  Non-Toxic
2    C[C@H](CS)C(=O)N[C@@H](Cc1ccccc1)B(O)O  Activity  Non-Toxic
3  C[C@H](CS)C(=O)N[C@H](Cc1coc2ccccc12)B(O)O  Activity  Non-Toxic
4                    C[C@H](CS)C(=O)NCB(O)O  Activity  Non-Toxic

Attention now turns to another entry.
# lookup: Activity of C[C@H](CS)C(=O)N[C@H](Cc1ccccc1)B(O)O
Non-Toxic

###

Assay: Inhibition of bacterial N-terminal His-tagged TEV protease site linked NDM-1 (1 to 270 amino acids) expressed in Escherichia coli Transetta (DE3) preincubated for 10 mins followed by FC5 fluorescent substrate addition by fluorescence assay
Design: species or system Bacteria
Measured Ki of individual entries
The figure you give is taken to be in µM; do not add the unit.

Answered cases to consult:
> print(dat)
                               entry.smiles  numeric.value
1      C[C@H](CS)C(=O)N[C@H](B(O)O)c1ccccc1           26.4
2  C[C@H](CS)C(=O)N[C@@H](B(O)O)c1ccc(F)cc1           21.1
3                   C[C@H](CS)C(=O)NCC(=O)O           22.5
4           O=C(CCS)N[C@@H](Cc1ccccc1)B(O)O            191

# lookup: Ki of O=C(N[C@@H](Cc1ccccc1)B(O)O)[C@@H](CS)N1C(=O)c2ccccc2C1=O
57.7

###

Assay: Inhibition of bacterial N-terminal His-tagged TEV protease site linked AmpC (20 to 377 amino acids) expressed in Escherichia coli Transetta (DE3) preincubated for 10 mins followed by FC5 fluorescent substrate addition by fluorescence assay
Set-up: species or system Bacteria
READOUT: log10 of Ki (log10 of the value in µM)
log10 Ki, µM

Answered cases to consult:
> print(dat)
                                    molecule  numeric.value
 1         CC(C)[C@H](NC(=O)[C@H](C)CS)B(O)O           1.06
 2  O=C(N[C@@H](Cc1ccccc1)B(O)O)[C@@H](CS)N1C(=O)c2ccccc2C1=O           1.44
 3      C[C@H](CS)C(=O)N[C@H](B(O)O)c1ccccc1          -0.37
 4  C[C@H](CS)C(=O)N[C@H](Cc1coc2ccccc12)B(O)O           0.60
 5  COc1ccc(C[C@@H](NC(=O)[C@H](C)CS)B(O)O)cc1           0.07
 6        CC(C)C[C@H](NC(=O)[C@H](C)CS)B(O)O           1.25
 7                    C[C@H](CS)C(=O)NCB(O)O           0.81
 8       O=C(CCS)N[C@H](Cc1coc2ccccc12)B(O)O           0.65
 9                           CCCC(=O)NCB(O)O           1.77
10  C[C@H](CS)C(=O)N[C@@H](B(O)O)c1ccc2ccccc2c1           1.40

# lookup: log10 of Ki of CC(C)C[C@@H](NC(=O)[C@H](C)CS)B(O)O
0.49

Continue with C[C@H](CS)C(=O)N[C@@H](B(O)O)c1ccccc1
0.85

Continue with O=C(CS)N[C@H](Cc1coc2ccccc12)B(O)O
-0.01

Continue with Cc1ccc([C@@H](NC(=O)[C@H](C)CS)B(O)O)cc1
0.31

Continue with O=C(CCS)N[C@@H](Cc1ccccc1)B(O)O
0.06

Continue with C[C@H](CS)C(=O)N[C@@H](B(O)O)c1ccc(F)cc1
0.20

Continue with CCCC(=O)N[C@@H](Cc1ccccc1)B(O)O
1.52

Continue with O=C(N[C@@H](Cc1ccccc1)B(O)O)C(CS)Cc1ccccc1 (stereo not given in full)
1.06
